- System: P-4E-BP1 (T37/46)
- procedure details: Cell based AlphaLISA assay, inhibition of P-4E-BP1 (T37/46) in MDA-MB-468 cells (mTORC1 substrate)
- assay setup: Homo sapiens, 4 h, AlphaLisa, two to four hours at 37° C., read-out: pIC50 for Inhibition of mTORC1 and mTORC2 Substrate Phosphorylation P-4E-BP1-(T37/46) (converted)
For each entry below, report its IC50 value.

[Q] Please report the measured IC50 for CO[C@H]1C[C@@H]2CC[C@@H](C)[C@@](O)(O2)C(=O)C(=O)N2CCCC[C@H]2C(=O)O[C@H]([C@H](C)C[C@@H]2CC[C@@H](OC(=O)N3CCc4nc(N5CCN(C(=O)CCOCCN6CCN(c7ncc(C(=O)N8CCc9cc(Cn%10nc(-c%11ccc%12[nH]ccc%12c%11)c%11c(N)ncnc%11%10)ccc9C8)cn7)CC6)CC5)ncc4C3)[C@H](OC)C2)CC(=O)[C@H](C)/C=C(\C)[C@@H](O)[C@@H](OC)C(=O)[C@H](C)C[C@H](C)/C=C/C=C/C=C/1C
[A] 3.16 to 31.6 nM

[Q] Please report the measured IC50 for CO[C@H]1C[C@@H]2CC[C@@H](C)[C@@](O)(O2)C(=O)C(=O)N2CCCC[C@H]2C(=O)O[C@H]([C@H](C)C[C@@H]2CC[C@@H](OC(=O)NCc3cnc(N4CCN(C(=O)CCOCCN5CCN(c6ncc(C(=O)NCCS(=O)(=O)c7ccc(C(=O)N8CCOc9ccc(-c%10ccc(N)nc%10)cc9C8)c(C)c7F)cn6)CC5)CC4)nc3)[C@H](OC)C2)C[C@@H](O)[C@H](C)/C=C(\C)[C@@H](O)[C@@H](OC)C(=O)[C@H](C)C[C@H](C)/C=C/C=C/C=C/1C
[A] < 3.16 nM

[Q] Please report the measured IC50 for CO[C@H]1C[C@@H]2CC[C@@H](C)[C@@](O)(O2)C(=O)C(=O)N2CCCC[C@H]2C(=O)O[C@H]([C@H](C)C[C@@H]2CC[C@@H](OC(=O)N3CCc4nc(N5CCN(c6ncc(C(=O)NCCOCCOCCOCCOCCC(=O)N7CCc8cc(Cn9nc(-c%10cnc%11[nH]ccc%11c%10)c%10c(N)ncnc%109)ccc8C7)c(N)n6)CC5)ncc4C3)[C@H](OC)C2)CC(=O)[C@H](C)/C=C(\C)[C@@H](O)[C@@H](OC)C(=O)[C@H](C)C[C@H](C)/C=C/C=C/C=C/1C
[A] < 3.16 nM

[Q] Please report the measured IC50 for CO[C@H]1C[C@@H]2CC[C@@H](C)[C@@](O)(O2)C(=O)C(=O)N2CCCC[C@H]2C(=O)O[C@H]([C@H](C)C[C@@H]2CC[C@@H](OC(=O)NCc3cnc(N4CCN(c5ncc(C(=O)NCCOCCC(=O)N6CCN(c7ncc(C(=O)NCCCCn8nc(-c9ccc%10oc(N)nc%10c9)c9c(N)ncnc98)cn7)CC6)cn5)CC4)nc3)[C@H](OC)C2)CC(=O)[C@H](C)/C=C(\C)[C@@H](O)[C@@H](OC)C(=O)[C@H](C)C[C@H](C)/C=C/C=C/C=C/1C
[A] < 3.16 nM

[Q] Please report the measured IC50 for CO[C@H]1C[C@@H]2CC[C@@H](C)[C@@](O)(O2)C(=O)C(=O)N2CCCC[C@H]2C(=O)O[C@H]([C@H](C)C[C@@H]2CC[C@@H](OC(=O)NCc3cnc(N4CCN(C(=O)CCOCCN5CCN(c6ncc(C(=O)N7CCc8cc(Cn9nc(-c%10ccc%11oc(N)nc%11c%10)c%10c(N)ncnc%109)ccc8C7)cn6)CC5)CC4)nc3)[C@H](OC)C2)C[C@@H](OC)[C@H](C)/C=C(\C)[C@@H](O)[C@@H](OC)C(=O)[C@H](C)C[C@H](C)/C=C/C=C/C=C/1C
[A] < 3.16 nM
